Molecular target: mouse recombinant Casp1 (Mus musculus, UniProt P29452)
Sequence (P29452 119-296 limits assumed): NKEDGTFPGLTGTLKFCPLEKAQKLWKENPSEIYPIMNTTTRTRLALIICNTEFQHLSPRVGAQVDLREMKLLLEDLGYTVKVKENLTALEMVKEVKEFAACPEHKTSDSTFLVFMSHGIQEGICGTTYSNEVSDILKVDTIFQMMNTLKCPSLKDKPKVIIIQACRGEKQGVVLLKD
Sequence (P29452 315-402 limits assumed): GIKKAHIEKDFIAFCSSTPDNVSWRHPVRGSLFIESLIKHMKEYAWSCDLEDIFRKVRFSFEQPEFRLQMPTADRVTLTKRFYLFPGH
Experiment: Caspase inhibition IC50, mouse recombinant Casp1
Settings: read-out: IC50 against mouse Casp1
quantity: IC50 (nM)

1. CCO[C@@H]1OC(=O)C[C@@H]1NC(=O)[C@@H]1CCCN1C(=O)[C@@H](NC(=O)c1ccc(N)c(Cl)c1)C(C)(C)C
2. CC(C)(C)[C@H](NC(=O)c1ccc(N)c(Cl)c1)C(=O)N1CCC[C@H]1C(=O)N[C@H]1CC(=O)OC1O (some centres unmarked)
Min IC50? 1 | 2 Answer by quoting the chosen item's label.
2
(2: 18 nM, 1: 52.1 nM)

* * *

Biological target: recombinant human Casp1 (Homo sapiens)
Sequence (P29466 120-297 limits assumed): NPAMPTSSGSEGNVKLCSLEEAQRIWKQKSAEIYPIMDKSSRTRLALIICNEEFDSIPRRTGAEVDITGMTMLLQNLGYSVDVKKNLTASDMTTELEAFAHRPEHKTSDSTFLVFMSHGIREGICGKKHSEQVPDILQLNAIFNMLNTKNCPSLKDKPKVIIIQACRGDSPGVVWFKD
Sequence (P29466 317-404 limits assumed): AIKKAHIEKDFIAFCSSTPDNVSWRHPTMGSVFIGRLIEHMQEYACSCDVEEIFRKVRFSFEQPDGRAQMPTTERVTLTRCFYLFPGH
Experiment: Caspase inhibition IC50, recombinant human Casp1
Conditions: read-out: IC50 against human Casp1
pIC50: −log10 of the molar value.
quantity: pIC50

I. CCO[C@@H]1OC(=O)C[C@@H]1NC(=O)[C@@H]1CCCN1C(=O)[C@@H](NC(=O)c1ccc(N)c(Cl)c1)C(C)(C)C
II. CC(C)(C)[C@H](NC(=O)c1ccc(N)c(Cl)c1)C(=O)N1CCC[C@H]1C(=O)N[C@H]1CC(=O)OC1O (some centres unmarked)
Which value of pIC50 is numerically greater: that of I or that of II ? Answer by quoting the chosen item's label.
I
